tested on: NCI-H522; test: NCI tumour cell line growth inhibition, 48 h
Activity calls are given as the source filed them. Cut-off read from the data, not from the text of the source: active = GI50 up to about 1.1 µM and inactive = higher. Peptide text beside a SMILES is read from it. * marks the point of attachment. Boc = CC(C)(C)OC(=O)*
I'd be grateful if you could share measured GI50 for these entries.

These solved cases illustrate the format of a correct answer.
Recorded GI50 (compound CCCCCCCC/C=C\CCCCCCC/C=C1\C[C@](/C=C/C(=O)OC)(CO)OC1=O ): 2.58 µM (inactive)

The compound identified as O=C(N/C(=C\c1ccc(F)cc1)c1nc2ccccc2[nH]1)c1ccccc1 registered its GI50 at > 100 µM (inactive)

GI50 reported for this compound CCCCCCCCCCCCCCCCCCN(C)CC(COC)OP(=O)([O-])OCC[N+](C)(C)C (stereo not given) : 1.43 µM (inactive)

The measured GI50 associated with CC(C)(C)NCC(COc1ccc([N+](=O)[O-])cc1)OP(c1ccccc1)c1ccccc1 (stereo not given) reads 19.3 µM (inactive)

Entry CCOC(=O)/C=C1\CCCC12OCCO2 , GI50 reported as 2.87 µM (inactive)

Provide GI50 for all items below, preserving their order.
1. NC1CCC2(O)c3ccccc3C2C1 (stereo not given)
2. NC(=O)C(=O)C1C(=O)N(c2ccccc2)N=C1N (stereo not given)
3. COc1ccc(C2S/C(=C\c3cccc([N+](=O)[O-])c3)C(=O)N2NC(=O)Cc2ccccc2)cc1 (stereo not given)
4. COc1ccc2c(c1)C1=NCCN(CCO)c3ccc([N+](=O)[O-])c(c31)N2
5. COc1ccc2nc3ccccc3c(NCCCN(C)CCCl)c2c1
6. NC1CCCCC1.O=C(O)C1(P(=O)(O)O)CC1
7. CC(=O)N(CN1C(=O)CCC1C(=O)O)c1ccccc1 (stereo not given)
8. COc1cc(C2c3cc4c(cc3C(O)C3CCC(=O)N23)OCO4)cc(OC)c1OC (stereo not given)

["> 100 µM (inactive)", "> 100 µM (inactive)", "> 100 µM (inactive)", "0.264 µM (active)", "0.101 µM (active)", "> 100 µM (inactive)", "> 53 µM (inactive)", "16.9 µM (inactive)"]

Give measured GI50 for every item shown.
1. CSC(CC(=O)O)C(=O)O (stereo not given)
2. N[C@@H]1c2c(Br)sc(Br)c2C(=O)[C@H]1Br
3. O=C1C[C@@H](Sc2ccccc2)C2(OCCO2)C2ON3CCCC[C@H]3[C@H]12 (stereo not given in full)
4. COC(=O)C(Cc1c[nH]c2ccccc12)NC(=O)C(Cc1c[nH]c2ccccc12)NC(=O)C(Cc1c[nH]c2ccccc12)NC(=O)C(Cc1c[nH]c2ccccc12)NC(=O)C(Cc1c[nH]c2ccccc12)NC(=O)OC(C)(C)C (stereo not given) (Boc-WWWWW-OMe; configuration not given here)
5. CC(C)(C)OC(=O)NCC(=O)N1CCN(C(=O)CNC(=O)OC(C)(C)C)CC1
6. COC(=O)C1=C(C(=O)OC)C2C=CC1C1C(Cl)=C(Cl)C21 (stereo not given)

["> 100 µM (inactive)", "14.7 µM (inactive)", "2.15 µM (inactive)", "46 µM (inactive)", "2.55 µM (inactive)", "> 100 µM (inactive)"]

Lookup result for CCOc1ccc(/N=C\c2cc(OC)c(OC)c(OC)c2)cc1 ; measured GI50: > 100 µM (inactive)

###

test system: KM12; assay: NCI tumour cell line growth inhibition, 48 h
Activity calls are given as the source filed them. Rule as the data show it: active = GI50 up to about 1.1 µM and inactive = higher.
endpoint: GI50

For record COc1ccc2nc3ccc(OC)cc3c(S(=O)(=O)Cc3ccc([N+](=O)[O-])cc3)c2c1 the listed GI50 is > 100 µM (inactive)

The recorded GI50 for entry COC1(OC)N=C(N)C2(C#N)C(C)=C3NCN(C)N=C3C12C#N (stereo not given) equals > 100 µM (inactive)

The compound CC(C)CC(=O)O[C@H]1C(=O)O[C@@H]2C[C@H]3[C@H](C)C(=O)C(O[C@@H]4O[C@H](CO)[C@@H](O)[C@H](O)[C@H]4O)=C[C@]3(C)[C@H]3[C@@H](O)[C@H](O)[C@]4(C(=O)O)OC[C@]32[C@@H]14 [BRUCEOSIDE E] showed GI50 equal to 70.1 µM (inactive)

Please give GI50, item by item, for the list that follows.
1. O=C(CCc1ccccc1)NS(=O)(=O)c1ccccc1
2. CC1OC(n2ccc3ccc([N+](=O)[O-])cc32)C(O)C(O)C1O (stereo not given)

> 100 µM (inactive)
> 100 µM (inactive)

###

tested on: HL-60; assay: NCI tumour cell line growth inhibition, 48 h
Activity calls are given as the source filed them. No stated cut-off is given here; in the data, active = GI50 up to about 1.1 µM and inactive = higher.
Kindly supply the reported GI50 values for the records listed here.

# example entries with known answers
Item: CCc1cccc(CC)c1NC(=S)NC(=O)c1ccc(Br)cc1 | System: HL-60 | GI50: 17.5 µM (inactive)

The reported HL-60 GI50 of O=C1c2ccccc2C(=O)N1CCCSc1ccccc1 is 75.7 µM (inactive)

Param item: COC(c1ccc(C(C)(C)C)cc1)(c1ccc(C(C)(C)C)cc1)c1cc(C(O)(c2cc(C(OC)(c3ccc(C(C)(C)C)cc3)c3ccc(C(C)(C)C)cc3)c(C)cc2C)c2cc(C(OC)(c3ccc(C(C)(C)C)cc3)c3ccc(C(C)(C)C)cc3)c(C)cc2C)c(C)cc1C ; param system: HL-60; output GI50: > 100 µM (inactive)

Attention now shifts to the item below.
Record for CC(C)(C)OC[C@H](O)CC#N under target or system HL-60: GI50 reported as > 100 µM (inactive)

###

tested on: UO-31; assay: NCI tumour cell line growth inhibition, 48 h
The source made the active and inactive calls. Rule as the data show it: active = GI50 up to about 1.1 µM and inactive = higher.
Please answer using one outcome listed in active, inactive

Solved cases below.
# outcome recorded in this test, key = Cc1cc(=O)oc2cc(O)c(CN(C)CC(=O)O)cc12
inactive

For CCOP(=O)(OCC)C(NC(=O)C(C(F)(F)F)C(F)(F)F)c1ccccc1 (stereo not given) , what call appears in the results of this test?
inactive

Dear all, I need the recorded test outcome for O=c1n(CC2CO2)c2ccccc2n1CC1CS1 (stereo not given) , thank you.
inactive

// param item: Cc1cc(C)c2c(=O)n(CN3CCC(C#N)(c4ccccc4)CC3)sc2n1 ; yields the recorded call
inactive

For Cc1nc(O)c(Cc2ccccc2O)c(-c2ccccc2)n1 , what call appears in the results of this test?
inactive

So what was the verdict on CCCCOC(=O)CN1C(=O)c2ccccc2C1=O in this test?
inactive

Can you look up the reported call for O=C1C[C@H]2[C@@H](O1)[C@@H](O)CN1C(=O)c3ccccc3[C@H]21 for me?
inactive

Hi, sorry to bother you, what did the test record for CC(C)(C)OC(=O)NC(CCCCNC(=O)OCc1ccccc1)C(=O)NCCNc1ccc(NCCNC(=O)C(CCCCNC(=O)OCc2ccccc2)NC(=O)OC(C)(C)C)c2c1C(=O)c1ccccc1C2=O (stereo not given) ?
inactive

Just curious, what result did COc1ccc(-c2cc(=O)c3c(OC)c(OC)c(OC)c(OC)c3o2)cc1 [TANGERETIN] get here?
inactive

For C=CCNS(=O)(=O)c1ncnc2[nH]cnc12 , which call appears in the assay record?
inactive

More entries:
What did the test return for N#CC(/C(CCCC(=O)Nc1cccc([N+](=O)[O-])c1)=N\NC(=O)c1c(O)ccc2ccccc12)c1nc2ccccc2s1 (stereo not given) ?
inactive

Record request — test call for S=C1ON=C(c2ccccc2)/C1=C/Nc1ccccc1
inactive

What was the test verdict on CCOC(=O)CN1C(=O)c2c(c(C)n(-c3ccccc3)c2C)C1=O ?
inactive

Identify the outcome logged in this assay for the molecule shown: COC(=O)C1=C(C(=O)OC)C2C=CC1C1C(Cl)=C(Cl)C21 (stereo not given)
inactive

###

tested on: HCT-15
Field: GI50. Provide a value for each of the compounds that follow.
Answers are plain numbers, in µM.

Below are 5 compounds. Give each one its GI50.
1. CC1(C)C2CCC1(C)C(N/C(Sc1ccccc1)=C(/C(Cl)=C(Cl)Cl)[N+](=O)[O-])C2 (configuration not stated)
2. COc1cc2c(cc1O)C(C)Cc1cc3c(cc1N(C)CC2)OCO3 (configuration not stated)
3. O=C(/C=C/c1ccc(Br)cc1)c1ccc(NCc2nc3ccccc3[nH]2)cc1
4. C/C=C/C=C/C1=NN(c2cccc(S(=O)(=O)O)c2)C2(C1)C(Cl)C(=O)N2c1nc2ccccc2s1 (configuration not stated)
5. Cc1[nH]c2ccccc2c1-c1n[nH]c(=O)c2ccccc12

1: 10.4; 2: 3.94; 3: 3.95; 4: 14.5; 5: 5.33

###

Please respond with reported GI50 for every item in the list.
system: PC-3; experiment: NCI tumour cell line growth inhibition, 48 h
Activity calls are given as the source filed them. Cut-off read from the data, not from the text of the source: active = GI50 up to about 1.1 µM and inactive = higher.

Some solved entries appear below for comparison.
Sure, the documented GI50 for CC1(C)CC(=O)C2=C(C1)NC(=S)C(C#N)C2c1ccccc1 (stereo not given) is > 100 µM (inactive)

Briefly, GI50 measured for COc1ccc(N2C(=O)C3c4[nH]c5cc(Cl)ccc5c4C4CCC(C(C)(C)C)CC4C3C2=O)cc1 (stereo not given) : 29.2 µM (inactive)

Input O=C(O)CC/C(=N\Nc1nsc2ccccc12)c1ccc(Cl)cc1 . Output GI50: 20.9 µM (inactive)

Looking up CC(C)(C)OC(=O)N1Cc2cc(O)ccc2C[C@H]1C(=O)O , I found its GI50 recorded as > 100 µM (inactive)

# GI50 (molecule: CCc1cccc(CC)c1NC(=S)NC(=O)c1ccc(Br)cc1 ) is 24.3 µM (inactive)

Hey, can you go through the list below and give me GI50 for every item?
1. C=C(C)C(O)C(O)c1c(OC)ccc2ccc(=O)oc12 (stereo not given)
2. CN(C)Cc1nsc(N(C)C)n1

["> 100 µM (inactive)", "> 100 µM (inactive)"]

Quick one: give me GI50 for each item below, same order please.
1. COc1ccc(S(=O)(=O)n2c3c(c4ccccc42)[C@@H]2[C@@H](CCCN2C(=O)C[S+]([O-])c2ccc(C)cc2)[C@H](Cl)C3)cc1 (stereo not given in full)
2. CC1(C)CCC[C@@]2(C)C1C(=O)[C@@H]1O[C@]1(C)[C@@H]2CO (stereo not given in full)

> 100 µM (inactive)
35.4 µM (inactive)

Looking up O=C(O)c1nc2ccccc2nc1Nc1ccc(Cl)c(Cl)c1 , I see its GI50 listed as 32.6 µM (inactive)
